# Run conditions: in chloroform, 313.95 K
Quantity kind: solubility (mole fraction)
Just the number, please, no unit after it.

What value of solubility (mole fraction) has been recorded for this entry: CC(C)COc1cccc(B(O)O)c1
0.0408

----------
# Run conditions: in 3-pentanone, 322.55 K
Quantity kind: solubility (mole fraction)
Respond numerically, and do not add a unit to the figure.

Name the recorded solubility (mole fraction) for CC(C)COc1ccccc1B(O)O .
0.482

----------
# Run conditions: in methylcyclohexane, 334.95 K
Quantity kind: solubility (mole fraction)
Please respond with just the number, no unit label.

Please give the measured solubility (mole fraction) for this molecule: CC(C)COc1ccccc1B(O)O
0.328
